Hello, the source for this data is paper PMC4774911, in case you need it.

Biological target: CDC42BPG (Homo sapiens, UniProt Q6DT37)
Sequence (Q6DT37 whole entry): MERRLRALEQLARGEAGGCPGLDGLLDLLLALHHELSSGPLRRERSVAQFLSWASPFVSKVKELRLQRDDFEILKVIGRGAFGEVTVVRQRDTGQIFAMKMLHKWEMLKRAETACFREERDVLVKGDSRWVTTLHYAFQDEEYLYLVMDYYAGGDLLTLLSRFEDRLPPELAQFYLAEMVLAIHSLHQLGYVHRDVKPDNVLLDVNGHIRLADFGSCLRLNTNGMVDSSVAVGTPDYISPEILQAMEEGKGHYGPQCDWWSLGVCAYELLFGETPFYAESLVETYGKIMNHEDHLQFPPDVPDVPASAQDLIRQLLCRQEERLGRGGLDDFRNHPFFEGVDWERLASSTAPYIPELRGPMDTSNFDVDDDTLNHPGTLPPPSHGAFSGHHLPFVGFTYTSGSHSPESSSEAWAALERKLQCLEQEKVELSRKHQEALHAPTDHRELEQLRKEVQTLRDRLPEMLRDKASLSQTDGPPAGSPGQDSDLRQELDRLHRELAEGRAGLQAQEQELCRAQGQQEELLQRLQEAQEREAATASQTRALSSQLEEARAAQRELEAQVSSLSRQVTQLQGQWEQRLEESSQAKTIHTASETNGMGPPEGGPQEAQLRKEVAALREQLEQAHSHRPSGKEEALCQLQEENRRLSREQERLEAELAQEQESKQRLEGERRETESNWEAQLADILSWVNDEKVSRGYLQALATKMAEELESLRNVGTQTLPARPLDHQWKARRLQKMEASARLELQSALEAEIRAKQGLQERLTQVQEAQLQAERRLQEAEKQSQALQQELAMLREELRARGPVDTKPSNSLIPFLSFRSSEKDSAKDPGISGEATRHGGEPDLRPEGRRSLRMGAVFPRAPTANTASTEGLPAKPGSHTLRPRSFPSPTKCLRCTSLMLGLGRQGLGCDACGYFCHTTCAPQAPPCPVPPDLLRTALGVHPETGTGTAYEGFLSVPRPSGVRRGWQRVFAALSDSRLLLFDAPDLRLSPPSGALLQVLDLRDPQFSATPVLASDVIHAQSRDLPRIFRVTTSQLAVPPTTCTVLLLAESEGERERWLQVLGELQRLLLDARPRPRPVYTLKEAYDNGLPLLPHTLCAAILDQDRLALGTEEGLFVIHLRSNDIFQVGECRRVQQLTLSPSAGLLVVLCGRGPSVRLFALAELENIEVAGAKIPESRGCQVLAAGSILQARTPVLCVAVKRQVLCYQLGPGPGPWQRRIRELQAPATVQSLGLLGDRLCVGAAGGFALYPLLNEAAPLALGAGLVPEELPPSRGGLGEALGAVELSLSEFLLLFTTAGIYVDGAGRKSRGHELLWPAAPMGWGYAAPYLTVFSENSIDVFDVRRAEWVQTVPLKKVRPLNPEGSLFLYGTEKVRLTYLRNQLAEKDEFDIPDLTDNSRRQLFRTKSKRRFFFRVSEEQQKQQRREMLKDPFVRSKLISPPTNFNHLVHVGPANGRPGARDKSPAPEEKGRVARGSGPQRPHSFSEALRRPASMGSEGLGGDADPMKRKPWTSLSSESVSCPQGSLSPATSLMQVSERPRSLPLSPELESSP
Assay: biochemical
Settings: read-out: KDapp
Quick reference: Kd of the listed items.
Output spec: scalar in µM, unitless text.

Compound	System	Unit String	Kd
CN(C)CC(O)COc1ccc(Nc2ncc([N+](=O)[O-])c(Nc3ccccc3O)n2)cc1.O=C(O)C(F)(F)F (stereo not drawn) [TCMDC-141399]	CDC42BPG (Homo sapiens, UniProt Q6DT37)	µM	8.14

QUERY: Return the recorded Kd value; entry: CN1CCN(c2ccc(Nc3ncc(C#N)c(Nc4ccccc4C(N)=O)n3)cc2)CC1.Cl [TCMDC-134116]
RESULT: 0.848

QUERY: Return the recorded Kd value; entry: Cl.NCC1(c2nc(-c3ccc(Cl)c(O)c3)c(-c3ccncc3)[nH]2)CCCCC1 [TCMDC-141154]
RESULT: 6.79

* * *

Molecular target: LIMK1 (Homo sapiens)
Sequence (P53667 whole entry): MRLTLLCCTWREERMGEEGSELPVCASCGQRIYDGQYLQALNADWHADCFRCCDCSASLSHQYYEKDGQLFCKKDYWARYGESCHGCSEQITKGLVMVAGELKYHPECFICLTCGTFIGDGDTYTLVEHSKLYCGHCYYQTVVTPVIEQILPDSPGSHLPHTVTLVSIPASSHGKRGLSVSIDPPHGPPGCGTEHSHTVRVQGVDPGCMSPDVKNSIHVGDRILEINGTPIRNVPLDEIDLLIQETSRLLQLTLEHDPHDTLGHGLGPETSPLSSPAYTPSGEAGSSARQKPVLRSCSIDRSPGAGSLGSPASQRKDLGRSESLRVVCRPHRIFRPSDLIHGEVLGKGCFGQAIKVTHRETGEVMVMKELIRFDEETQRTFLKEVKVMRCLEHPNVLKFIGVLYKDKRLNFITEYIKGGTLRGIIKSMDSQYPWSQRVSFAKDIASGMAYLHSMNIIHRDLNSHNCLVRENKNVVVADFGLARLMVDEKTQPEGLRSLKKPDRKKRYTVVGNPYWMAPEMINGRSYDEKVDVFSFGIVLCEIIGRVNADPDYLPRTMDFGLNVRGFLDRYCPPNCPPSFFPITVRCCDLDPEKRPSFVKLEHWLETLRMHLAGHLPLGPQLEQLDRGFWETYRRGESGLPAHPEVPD
Assay: biochemical
Conditions: read-out: KDapp
Value Type: Kd (nM)
Output spec: scalar in nM, unitless text.

QUERY: Tell me Kd of CN1CCN(c2ccc(Nc3ncc(C#N)c(Nc4ccccc4C(N)=O)n3)cc2)CC1.Cl when tested on LIMK1 (Homo sapiens).
RESULT: 121

* * *

Target: CAMK2D (Homo sapiens, UniProt Q13557)
Sequence (Q13557 whole entry): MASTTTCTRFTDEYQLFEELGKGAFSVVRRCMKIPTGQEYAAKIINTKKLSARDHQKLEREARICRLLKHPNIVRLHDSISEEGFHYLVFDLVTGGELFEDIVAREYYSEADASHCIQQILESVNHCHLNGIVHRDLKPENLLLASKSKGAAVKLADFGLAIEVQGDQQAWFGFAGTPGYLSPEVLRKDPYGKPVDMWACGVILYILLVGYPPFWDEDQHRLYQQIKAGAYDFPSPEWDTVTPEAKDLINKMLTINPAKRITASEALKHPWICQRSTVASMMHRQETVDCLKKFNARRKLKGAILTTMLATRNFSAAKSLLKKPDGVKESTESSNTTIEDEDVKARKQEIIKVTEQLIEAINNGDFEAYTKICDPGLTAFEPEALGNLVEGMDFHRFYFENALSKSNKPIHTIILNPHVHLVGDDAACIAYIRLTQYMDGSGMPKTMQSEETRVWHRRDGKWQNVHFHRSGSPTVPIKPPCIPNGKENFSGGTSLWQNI
Quick reference: IC50 of the listed items.

QUERY: Return the recorded IC50 value; entry: CN(C)CC(O)COc1ccc(Nc2ncc([N+](=O)[O-])c(Nc3ccccc3O)n2)cc1.O=C(O)C(F)(F)F (centres unmarked)
RESULT: > 20 µM

QUERY: Return the recorded IC50 value; entry: Cl.NCC1(c2nc(-c3ccc(Cl)c(O)c3)c(-c3ccncc3)[nH]2)CCCCC1
RESULT: > 20 µM

* * *

Test system MAPK6 (Homo sapiens, UniProt Q16659), IC50 listed for each of the compounds.

QUERY: Return the recorded IC50 value; entry: CN(C)CC(O)COc1ccc(Nc2ncc([N+](=O)[O-])c(Nc3ccccc3O)n2)cc1.O=C(O)C(F)(F)F (centres unmarked)
RESULT: 320 nM

QUERY: Return the recorded IC50 value; entry: Cl.NCC1(c2nc(-c3ccc(Cl)c(O)c3)c(-c3ccncc3)[nH]2)CCCCC1
RESULT: > 20000 nM

* * *

Molecular target: MAPKAPK3 (Homo sapiens, UniProt Q16644)
Sequence (Q16644 whole entry): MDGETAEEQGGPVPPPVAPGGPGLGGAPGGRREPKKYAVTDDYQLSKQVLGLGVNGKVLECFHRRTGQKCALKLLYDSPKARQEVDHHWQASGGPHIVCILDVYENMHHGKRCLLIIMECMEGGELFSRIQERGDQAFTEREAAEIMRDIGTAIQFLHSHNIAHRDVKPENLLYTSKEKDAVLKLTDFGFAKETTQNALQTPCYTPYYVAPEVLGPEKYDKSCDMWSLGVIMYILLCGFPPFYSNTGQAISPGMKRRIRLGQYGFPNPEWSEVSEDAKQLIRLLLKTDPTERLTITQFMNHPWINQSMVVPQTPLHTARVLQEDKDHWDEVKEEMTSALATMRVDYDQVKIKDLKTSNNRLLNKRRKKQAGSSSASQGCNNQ
pIC50: −log10 of the molar value.
Value Type: pIC50

QUERY: Return the recorded pIC50 value; entry: CN1CCN(c2ccc(Nc3ncc(C#N)c(Nc4ccccc4C(N)=O)n3)cc2)CC1.Cl
RESULT: < 4.70

* * *

Biological target: UniProt O95835
Sequence (O95835 1-1130): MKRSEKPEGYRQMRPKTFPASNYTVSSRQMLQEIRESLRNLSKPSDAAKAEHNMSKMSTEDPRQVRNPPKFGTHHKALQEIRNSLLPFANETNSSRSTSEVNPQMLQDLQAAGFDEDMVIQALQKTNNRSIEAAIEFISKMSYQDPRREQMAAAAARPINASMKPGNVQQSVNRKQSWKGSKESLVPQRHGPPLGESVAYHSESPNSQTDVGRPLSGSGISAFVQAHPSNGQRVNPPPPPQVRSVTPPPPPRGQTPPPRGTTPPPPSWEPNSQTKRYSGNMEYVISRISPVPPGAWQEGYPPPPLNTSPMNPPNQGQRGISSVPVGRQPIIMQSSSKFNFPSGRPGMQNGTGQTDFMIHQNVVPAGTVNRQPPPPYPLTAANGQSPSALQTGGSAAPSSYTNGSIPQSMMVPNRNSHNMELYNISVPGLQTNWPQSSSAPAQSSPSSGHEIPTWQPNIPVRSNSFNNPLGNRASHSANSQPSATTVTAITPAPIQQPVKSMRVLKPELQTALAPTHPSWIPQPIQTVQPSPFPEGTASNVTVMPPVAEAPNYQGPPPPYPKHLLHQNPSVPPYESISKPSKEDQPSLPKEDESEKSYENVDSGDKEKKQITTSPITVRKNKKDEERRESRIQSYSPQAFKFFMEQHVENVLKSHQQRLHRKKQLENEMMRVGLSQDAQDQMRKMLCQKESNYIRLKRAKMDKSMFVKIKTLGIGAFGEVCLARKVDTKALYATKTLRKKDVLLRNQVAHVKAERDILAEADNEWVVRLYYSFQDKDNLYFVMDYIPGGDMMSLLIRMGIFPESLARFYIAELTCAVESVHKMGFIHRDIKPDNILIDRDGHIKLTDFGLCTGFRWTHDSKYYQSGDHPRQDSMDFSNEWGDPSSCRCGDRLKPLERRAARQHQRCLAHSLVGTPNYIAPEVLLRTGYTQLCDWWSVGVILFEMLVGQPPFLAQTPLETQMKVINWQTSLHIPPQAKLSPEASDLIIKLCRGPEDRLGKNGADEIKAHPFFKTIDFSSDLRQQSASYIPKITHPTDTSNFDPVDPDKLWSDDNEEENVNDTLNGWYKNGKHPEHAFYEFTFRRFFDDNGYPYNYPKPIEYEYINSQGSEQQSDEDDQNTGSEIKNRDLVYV
Assay: biochemical
Details: read-out: KDapp
Value Type: Kd (nM)
Output spec: scalar in nM, unitless text.

CN1CCN(c2ccc(Nc3ncc(C#N)c(Nc4ccccc4C(N)=O)n3)cc2)CC1.Cl 174

QUERY: Return the recorded Kd value; entry: Cl.NCC1(c2nc(-c3ccc(Cl)c(O)c3)c(-c3ccncc3)[nH]2)CCCCC1
RESULT: 911
